Source of measurements: patent US9247759B2

# TARGET_UNDER_TEST: hT2R8 (Homo sapiens (Human))
# Sequence (Q9NYW2 whole entry): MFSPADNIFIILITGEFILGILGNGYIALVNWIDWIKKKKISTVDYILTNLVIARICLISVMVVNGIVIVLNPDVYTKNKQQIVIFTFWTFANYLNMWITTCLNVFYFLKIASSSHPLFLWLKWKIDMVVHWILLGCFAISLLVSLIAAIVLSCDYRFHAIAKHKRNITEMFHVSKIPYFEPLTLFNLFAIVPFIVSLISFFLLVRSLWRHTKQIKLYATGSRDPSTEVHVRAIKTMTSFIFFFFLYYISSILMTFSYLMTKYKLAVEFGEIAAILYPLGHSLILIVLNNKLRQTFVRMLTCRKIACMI
# MEASUREMENT_NOTES: hT2R8 antagonist high-throughput FLIPR assay, stable cell line with G16g44, agonist andrographolide
# Format: cell-based
# EXPERIMENTAL_SETUP: table after Example 10-97; read-out: hT2R8 IC50
pIC50: −log10 of the molar value.
Lab note: compare pIC50 against 7. Equal or greater, write YES. Smaller, write NO.

[[record]]
molecule = "Cc1noc(C)c1Cn1cc(N2C(=O)N(C)C(C)(C)C2=O)cn1"
assigned_category = "NO"

[[record]]
molecule = "Cc1noc(C)c1Cn1cc(N2C(=O)NC(CC(C)C)C2=O)cn1 (stereo not shown)"
assigned_category = "NO"

[[record]]
molecule = "COCn1c(=O)n(-c2cnn(Cc3c(C)noc3C)c2)c(=O)n1Cc1ccccc1"
assigned_category = "YES"

[[record]]
molecule = "COCCn1c(=O)n(-c2cnn(Cc3c(C)noc3C)c2)c(=O)n1Cc1ccccc1"
assigned_category = "YES"

[[record]]
molecule = "Cc1noc(C)c1Cn1cc(N2C(=O)CN(Cc3ccccc3[S+](C)[O-])C2=O)cn1 (stereo not shown)"
assigned_category = "NO"

[[record]]
molecule = "Cc1noc(C)c1Cn1cc(-n2c(=O)n(C)n(C)c2=O)cn1"
assigned_category = "NO"

[[record]]
molecule = "Cc1noc(C)c1Cn1cc(N2CNCN(Cc3ccccc3)C2=O)cn1"
assigned_category = "NO"

[[record]]
molecule = "Cc1noc(C)c1Cn1cc(N2C(=O)C(Cc3ccccc3)N(C)C2=O)cn1 (stereo not shown)"
assigned_category = "YES"

[[record]]
molecule = "Cc1noc(C)c1Cn1cc(N2C(=O)CN(Cc3cccc(CO)c3)C2=O)cn1"
assigned_category = "NO"

[[record]]
molecule = "Cc1noc(C)c1Cn1cc(N2C(=O)NC(CC3CCCC3)C2=O)cn1 (stereo not shown)"
assigned_category = "NO"

[[record]]
molecule = "Cc1noc(C)c1Cn1cc(N2C(=O)CN(Cc3ccccc3C(F)(F)F)C2=O)cn1"
assigned_category = "NO"

[[record]]
molecule = "Cc1noc(C)c1Cn1cc(N2CCCN(Cc3ccccc3)C2=O)cn1"
assigned_category = "NO"

[[record]]
molecule = "Cc1noc(C)c1Cn1cc(N2C(=O)CN(CC3CCCCC3)C2=O)cn1"
assigned_category = "NO"

[[record]]
molecule = "Cc1cccc(CN2CC(=O)N(c3cnn(Cc4c(C)noc4C)c3)C2=O)c1"
assigned_category = "YES"

[[record]]
molecule = "COc1cccc(CN2CC(=O)N(c3cnn(Cc4c(C)noc4C)c3)C2=O)n1"
assigned_category = "NO"

[[record]]
molecule = "Cc1noc(C)c1Cn1cc(N2C(=O)CN(Cc3cccc(C=O)c3)C2=O)cn1"
assigned_category = "NO"

[[record]]
molecule = "Cc1noc(C)c1Cn1cc(N2C(=O)CN(C)C2=O)cn1"
assigned_category = "NO"

[[record]]
molecule = "Cc1noc(C)c1Cn1cc(N2C(=O)CNC2=O)cn1"
assigned_category = "NO"

[[record]]
molecule = "Cc1noc(C)c1Cn1cc(N2C(=O)CN(Cc3ccccn3)C2=O)cn1"
assigned_category = "NO"

[[record]]
molecule = "COc1ccnc(CN2CC(=O)N(c3cnn(Cc4c(C)noc4C)c3)C2=O)c1OC"
assigned_category = "NO"

[[record]]
molecule = "Cc1noc(C)c1Cn1cc(N2C(=O)CN(CCc3ccc(O)cc3)C2=O)cn1"
assigned_category = "NO"

[[record]]
molecule = "Cc1noc(C)c1Cn1cc(-n2c(=O)n(Cc3ccccc3)n(Cc3ccccc3)c2=O)cn1"
assigned_category = "NO"

[[record]]
molecule = "Cc1noc(C)c1Cn1cc(N2C(=O)CN(Cc3ccc(F)cc3)C2=O)cn1"
assigned_category = "YES"

[[record]]
molecule = "Cc1noc(C)c1Cn1cc(-n2c(=O)n(C)n(CCc3ccc(F)cc3)c2=O)cn1"
assigned_category = "YES"

[[record]]
molecule = "Cc1noc(C)c1Cn1cc(N2C(=O)CN(CCc3ccccc3F)C2=O)cn1"
assigned_category = "NO"

